Hey, just so you know, these numbers are from ChEMBL document CHEMBL5214930.

Target under test: Indoleamine 2,3-dioxygenase 1 (Homo sapiens, UniProt P14902)
Test description: Inhibition of recombinant human IDO1 in HeLa cells at 100 nM relative to control
Type: cell-based
Sequence (P14902 whole entry, looked up): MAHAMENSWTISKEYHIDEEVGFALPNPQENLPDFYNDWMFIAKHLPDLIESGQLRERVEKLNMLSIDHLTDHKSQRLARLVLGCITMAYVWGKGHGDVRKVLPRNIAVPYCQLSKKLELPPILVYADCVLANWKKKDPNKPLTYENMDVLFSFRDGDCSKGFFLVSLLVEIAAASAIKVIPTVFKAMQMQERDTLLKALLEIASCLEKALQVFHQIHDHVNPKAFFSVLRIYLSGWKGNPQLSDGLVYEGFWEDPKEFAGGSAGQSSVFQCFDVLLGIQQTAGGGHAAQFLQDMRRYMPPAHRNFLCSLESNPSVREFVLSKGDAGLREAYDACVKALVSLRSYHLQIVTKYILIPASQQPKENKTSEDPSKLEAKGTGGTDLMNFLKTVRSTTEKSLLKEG
Result type: inhibition (%)

Chemical string | Target under test | Recorded measurement
O=C(NCc1cn(CCNc2nonc2/C(=N/O)Nc2ccc(F)c(Br)c2)nn1)c1ccc[nH]1 | Indoleamine 2,3-dioxygenase 1 (Homo sapiens, UniProt P14902) | 75
O=C(NCc1cn(CCNc2nonc2/C(=N/O)Nc2cccc(Cl)c2)nn1)c1ccccn1 | Indoleamine 2,3-dioxygenase 1 (Homo sapiens, UniProt P14902) | 69

A. O=C(NCc1cn(CCNc2nonc2/C(=N/O)Nc2cc(Br)cc(Br)c2)nn1)c1ccccn1
B. O=C(NCc1cn(CCNc2nonc2/C(=N/O)NCc2ccccc2Br)nn1)c1ccccn1
INPUT: // which entry reports the smaller inhibition, A or B ? Your answer should be the label attached to the chosen record.
OUTPUT: B
(B: 5%, A: 11%)

---

Target under test: Indoleamine 2,3-dioxygenase 1 (Homo sapiens, UniProt P14902)
Test description: Inhibition of human IDO1
Sequence (P14902 whole entry): as the sequence (P14902 whole entry, looked up) above
Result type: IC50 (nM)

Some solved entries appear below for comparison.
Chemical string | IC50 [nM]
O=C(NCc1cn(CCNc2nonc2/C(=N/O)Nc2cccc(Br)c2)nn1)c1ccccn1 | 37
O=C(NCc1cn(CCNc2nonc2/C(=N/O)Nc2ccc(F)c(Br)c2)nn1)c1ccccn1 | 52

1. O=C(NCc1cn(CCNc2nonc2/C(=N/O)Nc2ccc(F)c(Br)c2)nn1)c1ccc[nH]1
2. O=C(NCc1cn(CCNc2nonc2/C(=N/O)NCc2cccc(Br)c2)nn1)c1ccccn1
INPUT: # argmax over IC50 for candidates 1 and 2 Your answer should be the label attached to the chosen record.
OUTPUT: 2
(2: 411 nM, 1: 47 nM)

---

Test description: Half life in Sprague-Dawley rat at 10 mg/kg, po
Format: ADME, organism-based
Measurement context: in vivo
Result type: half-life (h)
Value expressed in h; do not type the unit.

INPUT: Which value of half-life has been reported for "O=C(NCc1cn(CCNc2nonc2/C(=N/O)NCc2cccc(Br)c2)nn1)c1ccccn1" in the records?
OUTPUT: 2.02

---

Test description: Cmax in Sprague-Dawley rat at 10 mg/kg, po
Type: ADME, organism-based
Set-up: dose 10 mg/kg, route po
Measurement context: in vivo
Result type: Cmax (ng/mL)
Value expressed in ng/mL; do not type the unit.

INPUT: Which value of Cmax has been reported for "O=C(NCc1cn(CCNc2nonc2/C(=N/O)NCc2cccc(Br)c2)nn1)c1ccccn1" in the records?
OUTPUT: 154

---

Test description: AUC(0 to infinity) in Sprague-Dawley rat at 1 mg/kg, iv
Format: ADME, organism-based
Design: time infinity, dose 1 mg/kg, route iv
Measurement context: in vivo
Result type: AUC(0-inf) (ng·h/mL)
Value expressed in ng·h/mL; do not type the unit.

INPUT: Which value of AUC(0-inf) has been reported for "O=C(NCc1cn(CCNc2nonc2/C(=N/O)NCc2cccc(Br)c2)nn1)c1ccccn1" in the records?
OUTPUT: 375

---

Test description: MRT (0 to infinity) in Sprague-Dawley rat at 10 mg/kg, po
Assay type: ADME, organism-based
Measurement context: in vivo
Result type: MRT inf (h)
Value expressed in h; do not type the unit.

INPUT: Which value of MRT inf has been reported for "O=C(NCc1cn(CCNc2nonc2/C(=N/O)NCc2cccc(Br)c2)nn1)c1ccccn1" in the records?
OUTPUT: 7.48

---

Test description: AUC(0 to infinity) in Sprague-Dawley rat at 10 mg/kg, po
Type: ADME, organism-based
Set-up: time infinity, dose 10 mg/kg, route po
Measurement context: in vivo
Result type: AUC(0-inf) (ng·h/mL)
Value expressed in ng·h/mL; do not type the unit.

INPUT: Which value of AUC(0-inf) has been reported for "O=C(NCc1cn(CCNc2nonc2/C(=N/O)NCc2cccc(Br)c2)nn1)c1ccccn1" in the records?
OUTPUT: 670

---

Target under test: Indoleamine 2,3-dioxygenase 2 (Homo sapiens)
Sequence (whole entry): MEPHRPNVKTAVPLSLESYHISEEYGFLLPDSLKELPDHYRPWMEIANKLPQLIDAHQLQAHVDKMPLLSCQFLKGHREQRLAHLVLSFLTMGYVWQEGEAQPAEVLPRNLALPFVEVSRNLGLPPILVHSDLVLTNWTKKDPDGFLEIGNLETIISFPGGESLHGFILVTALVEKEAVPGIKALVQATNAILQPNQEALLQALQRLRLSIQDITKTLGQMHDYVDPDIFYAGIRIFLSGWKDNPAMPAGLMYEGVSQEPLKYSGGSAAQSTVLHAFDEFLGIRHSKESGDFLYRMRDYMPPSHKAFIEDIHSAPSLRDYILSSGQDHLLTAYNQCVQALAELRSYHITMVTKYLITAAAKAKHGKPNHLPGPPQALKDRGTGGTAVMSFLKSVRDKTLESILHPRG
Test description: Inhibition of recombinant human IDO2 in HeLa cells at […] relative to control
Format: cell-based
Result type: inhibition (%)

Chemical string | Target under test | inhibition, %
O=C(NCc1cn(CCNc2nonc2/C(=N/O)NCc2ccc(F)cc2)nn1)c1ccc[nH]1 | Indoleamine 2,3-dioxygenase 2 (Homo sapiens) | 10
O=C(NCc1cn(CCNc2nonc2/C(=N/O)Nc2ccc(F)cc2)nn1)c1ccccn1 | Indoleamine 2,3-dioxygenase 2 (Homo sapiens) | 30
O=C(NCc1cn(CCNc2nonc2/C(=N/O)NCc2ccc(Br)cc2)nn1)c1ccccn1 | Indoleamine 2,3-dioxygenase 2 (Homo sapiens) | 1
O=C(NCc1cn(CCNc2nonc2/C(=N/O)NCc2ccccc2Br)nn1)c1ccccn1 | Indoleamine 2,3-dioxygenase 2 (Homo sapiens) | 2
O=C(NCc1cn(CCNc2nonc2/C(=N/O)NCc2ccc(F)c(Br)c2)nn1)c1ccc[nH]1 | Indoleamine 2,3-dioxygenase 2 (Homo sapiens) | 0

a. C[C@H](N/C(=N\O)c1nonc1NCCn1cc(CNC(=O)c2ccc[nH]2)nn1)c1cccc(Br)c1
b. O=C(NCc1cn(CCNc2nonc2/C(=N/O)NCc2ccc(F)cc2)nn1)c1ccccn1
c. O=C(NCc1cn(CCNc2nonc2/C(=N/O)Nc2ccc(F)c(C(F)(F)F)c2)nn1)c1ccccn1
d. Cc1cc(Br)cc(N/C(=N\O)c2nonc2NCCn2cc(CNC(=O)c3ccccn3)nn2)c1
INPUT: # sort list by recorded inhibition, greatest to least List each label, following the requested order.
OUTPUT: d, c, a, b
(d: 61%, c: 40%, a: 15%, b: 0%)

---

Target under test: Indoleamine 2,3-dioxygenase 2 (Homo sapiens)
Sequence (Q6ZQW0 whole entry): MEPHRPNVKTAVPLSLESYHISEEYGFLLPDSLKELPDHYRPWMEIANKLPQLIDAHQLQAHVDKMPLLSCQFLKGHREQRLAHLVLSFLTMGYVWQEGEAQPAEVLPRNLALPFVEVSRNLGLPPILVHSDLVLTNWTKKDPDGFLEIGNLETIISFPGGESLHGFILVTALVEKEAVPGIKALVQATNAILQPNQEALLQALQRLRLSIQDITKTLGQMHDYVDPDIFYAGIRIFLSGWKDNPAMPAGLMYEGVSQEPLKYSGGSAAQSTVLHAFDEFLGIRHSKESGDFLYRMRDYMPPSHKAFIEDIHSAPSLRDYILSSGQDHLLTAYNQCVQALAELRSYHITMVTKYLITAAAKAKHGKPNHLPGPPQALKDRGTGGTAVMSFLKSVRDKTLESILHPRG
Test description: Inhibition of IDO2 (unknown origin)
Result type: IC50 (µM)

Molecule | Target under test | IC50, µM
CN1CCN(c2ccc3nc4n(c(=O)c3c2)-c2ccc(F)cc2C4=O)CC1 | Indoleamine 2,3-dioxygenase 2 (Homo sapiens) | 18.4

A. c1ccc(CCc2ccccc2-c2c[nH]nn2)cc1
B. COc1ccc2[nH]c([S+]([O-])Cc3ncc(C)c(OC)c3C)nc2n1 (stereo not drawn)
INPUT: // which entry reports the smaller IC50, A or B ? Your answer should be the label attached to the chosen record.
OUTPUT: B

---

Target under test: Indoleamine 2,3-dioxygenase 2 (Homo sapiens) (UniProt Q6ZQW0)
Sequence (whole entry): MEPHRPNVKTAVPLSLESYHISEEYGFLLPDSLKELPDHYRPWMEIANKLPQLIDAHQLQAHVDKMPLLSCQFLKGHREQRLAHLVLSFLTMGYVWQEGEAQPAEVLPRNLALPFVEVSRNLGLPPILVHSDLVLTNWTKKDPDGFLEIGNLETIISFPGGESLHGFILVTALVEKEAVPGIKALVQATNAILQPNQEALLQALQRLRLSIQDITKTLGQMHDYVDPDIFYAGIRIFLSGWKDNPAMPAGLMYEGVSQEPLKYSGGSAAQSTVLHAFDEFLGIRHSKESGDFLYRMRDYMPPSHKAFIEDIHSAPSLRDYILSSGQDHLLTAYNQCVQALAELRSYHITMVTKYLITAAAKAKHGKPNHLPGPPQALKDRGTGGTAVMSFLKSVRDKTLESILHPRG
Test description: Inhibition of recombinant human IDO2 in HeLa cells at […] relative to control
Format: cell-based
Result type: inhibition (%)

Some solved entries appear below for comparison.
Chemical string | Unit info | inhibition
O=C(NCc1cn(CCNc2nonc2/C(=N/O)Nc2cccc(Cl)c2)nn1)c1ccccn1 | % | 15
O=C(NCc1cn(CCNc2nonc2/C(=N/O)Nc2ccc(F)c(Cl)c2)nn1)c1ccccn1 | % | 38
O=C(NCc1cn(CCNc2nonc2/C(=N/O)Nc2cc(Br)cc(C(F)(F)F)c2)nn1)c1ccccn1 | % | 23
O=C(NCc1cn(CCNc2nonc2/C(=N/O)NCc2cccc(Br)c2)nn1)c1ccccn1 | % | 97
C[C@H](N/C(=N\O)c1nonc1NCCn1cc(CNC(=O)c2ccccn2)nn1)c1cccc(Br)c1 | % | 15
O=C(NCc1cn(CCNc2nonc2/C(=N/O)Nc2cccc(Br)c2)nn1)c1ccccn1 | % | 64

a. O=C(NCc1cn(CCNc2nonc2/C(=N/O)NCc2ccccc2Br)nn1)c1ccc[nH]1
b. Cc1ccc(Br)cc1N/C(=N\O)c1nonc1NCCn1cc(CNC(=O)c2ccccn2)nn1
c. O=C(NCc1cn(CCNc2nonc2/C(=N/O)Nc2ccc(F)c(Br)c2)nn1)c1ccccn1
INPUT: # sort list by recorded inhibition, greatest to least List each label, following the requested order.
OUTPUT: c, b, a
(c: 61%, b: 41%, a: 4%)
